Quick list: viability, T/C per entry.
System: 885512-296-R-J2-PDC complex spheroid growth, % test/control
ASSAY_OVERVIEW: Anticancer human tumor 885512-296-R-J2-PDC patient-derived breast carcinoma cell line growth inhibition [AhR]
CONDITION_PARAMETERS: second compound 1 µM; first compound 0.000949 µM; hits give low values
Reply numerically in %, unit not repeated.

Field: example entries. Status: answers known.
MOLECULE | MEASUREMENT_UNITS | viability, T/C
Nc1ncn(C2CC(O)C(CO)S2)c(=O)n1 (stereo not drawn) + Cc1ccccc1N=Nc1ccc(NC(=O)c2ccnn2C)c(C)c1 | % | 106
CCc1c2c(nc3ccc(O)cc13)-c1cc3c(c(=O)n1C2)COC(=O)[C@]3(O)CC + Cc1ccccc1N=Nc1ccc(NC(=O)c2ccnn2C)c(C)c1 | % | 16.8

Read the next record carefully.
Query: For 885512-296-R-J2-PDC complex spheroid growth, % test/control, provide viability, T/C of CCc1c2c(nc3ccc(O)cc13)-c1cc3c(c(=O)n1C2)COC(=O)[C@]3(O)CC + CC(CO)NC(=O)c1cc(-c2ccc(Cl)cc2)nn(-c2cnn(C)c2)c1=O please.
Result: 10.7

* * *

Test system: 885512-296-R-J2-PDC complex spheroid growth, % test/control
ASSAY_OVERVIEW: Anticancer human tumor 885512-296-R-J2-PDC cell line growth inhibition [AhR];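 also: spheroids exposed to compounds for seven days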
CONDITION_PARAMETERS: second compound 0.316 µM; first compound 0.003 µM; hits give low values
ENDPOINT: viability, T/C (%)
Reply numerically in %, unit not repeated.

Field: example entries. Status: answers known.
MOLECULE | viability, T/C, %
CCc1c2c(nc3ccc(O)cc13)-c1cc3c(c(=O)n1C2)COC(=O)[C@]3(O)CC + Cc1ccccc1N=Nc1ccc(NC(=O)c2ccnn2C)c(C)c1 | 7.53
CC(C)CC(NC(=O)C(Cc1ccccc1)NC(=O)c1cnccn1)B(O)O (centres undefined) + CC(CO)NC(=O)c1cc(-c2ccc(Cl)cc2)nn(-c2cnn(C)c2)c1=O | 99.3
CC(C)CC(NC(=O)C(Cc1ccccc1)NC(=O)c1cnccn1)B(O)O (centres undefined) + Cc1ccccc1N=Nc1ccc(NC(=O)c2ccnn2C)c(C)c1 | 122
CC(C)CC(NC(=O)C(Cc1ccccc1)NC(=O)c1cnccn1)B(O)O (centres undefined) + Cc1cncc(-c2nc(NCCc3c[nH]c4ccccc34)c3ncn(C(C)C)c3n2)c1 | 99
CCc1c2c(nc3ccc(O)cc13)-c1cc3c(c(=O)n1C2)COC(=O)[C@]3(O)CC + Cc1cncc(-c2nc(NCCc3c[nH]c4ccccc34)c3ncn(C(C)C)c3n2)c1 | 8.06
Nc1ncn(C2CC(O)C(CO)S2)c(=O)n1 (centres undefined) + Cc1cncc(-c2nc(NCCc3c[nH]c4ccccc34)c3ncn(C(C)C)c3n2)c1 | 94.1
Nc1ncn(C2CC(O)C(CO)S2)c(=O)n1 (centres undefined) + CC(CO)NC(=O)c1cc(-c2ccc(Cl)cc2)nn(-c2cnn(C)c2)c1=O | 92.9
Nc1ncn(C2CC(O)C(CO)S2)c(=O)n1 (centres undefined) + Cc1ccccc1N=Nc1ccc(NC(=O)c2ccnn2C)c(C)c1 | 108

Query: Item CCc1c2c(nc3ccc(O)cc13)-c1cc3c(c(=O)n1C2)COC(=O)[C@]3(O)CC + CC(CO)NC(=O)c1cc(-c2ccc(Cl)cc2)nn(-c2cnn(C)c2)c1=O has what recorded viability, T/C?
Result: 6.02

* * *

Quick list: viability, T/C per entry.
System: 885512-296-R-J2-PDC complex spheroid growth, % test/control
ASSAY_OVERVIEW: Anticancer human tumor 885512-296-R-J2-PDC cell line growth inhibition [AhR];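 also: spheroids exposed to compounds for seven days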
CONDITION_PARAMETERS: second compound 1 µM; first compound 0.0316 µM; hits give low values
Reply numerically in %, unit not repeated.

COMPOUND | SYSTEM | viability, T/C (%)
CC1COCCN1c1cc(C2(S(C)(=N)=O)CC2)nc(-c2ccnc3[nH]ccc23)n1 (configuration not stated) + Cc1cncc(-c2nc(NCCc3c[nH]c4ccccc34)c3ncn(C(C)C)c3n2)c1 | 885512-296-R-J2-PDC complex spheroid growth, % test/control | 86.4
CC(C)c1c(-c2ccccc2)nc2c(C#N)c[nH]n2c1=O + CC(CO)NC(=O)c1cc(-c2ccc(Cl)cc2)nn(-c2cnn(C)c2)c1=O | 885512-296-R-J2-PDC complex spheroid growth, % test/control | 105
COc1cccc2c1C(=O)c1c(O)c3c(c(O)c1C2=O)CC(O)(C(=O)CO)CC3OC1CC(N)C(O)C(C)O1 (configuration not stated) + Cc1cncc(-c2nc(NCCc3c[nH]c4ccccc34)c3ncn(C(C)C)c3n2)c1 | 885512-296-R-J2-PDC complex spheroid growth, % test/control | 19.7

Read the next record carefully.
Query: Item Nc1ncn(C2CC(O)C(CO)O2)c(=O)n1 (configuration not stated) + CC(CO)NC(=O)c1cc(-c2ccc(Cl)cc2)nn(-c2cnn(C)c2)c1=O has what recorded viability, T/C?
Result: 90.5

* * *

Test system: 885512-296-R-J2-PDC complex spheroid growth, % test/control
ASSAY_OVERVIEW: Anticancer human tumor 885512-296-R-J2-PDC cell line growth inhibition [AhR];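 also: spheroids exposed to compounds for seven days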
CONDITION_PARAMETERS: second compound 1 µM; first compound 0.0949 µM; hits give low values
Quick list: viability, T/C per entry.
Reply numerically in %, unit not repeated.

MOLECULE | viability, T/C, %
CCc1c2c(nc3ccc(O)cc13)-c1cc3c(c(=O)n1C2)COC(=O)[C@]3(O)CC + CC(CO)NC(=O)c1cc(-c2ccc(Cl)cc2)nn(-c2cnn(C)c2)c1=O | 2.42
CCN(c1cc(-c2ccc(CN3CCOCC3)cc2)cc(C(=O)NCc2c(C)cc(C)[nH]c2=O)c1C)C1CCOCC1 + CC(CO)NC(=O)c1cc(-c2ccc(Cl)cc2)nn(-c2cnn(C)c2)c1=O | 93.3
O=C(C=Cn1cnc(-c2cc(C(F)(F)F)cc(C(F)(F)F)c2)n1)NNc1cnccn1 + CC(CO)NC(=O)c1cc(-c2ccc(Cl)cc2)nn(-c2cnn(C)c2)c1=O | 33.4
CC(C)CC(NC(=O)C(Cc1ccccc1)NC(=O)c1cnccn1)B(O)O (stereo not given) + Cc1ccccc1N=Nc1ccc(NC(=O)c2ccnn2C)c(C)c1 | 0.5
CCc1c2c(nc3ccc(O)cc13)-c1cc3c(c(=O)n1C2)COC(=O)[C@]3(O)CC + Cc1ccccc1N=Nc1ccc(NC(=O)c2ccnn2C)c(C)c1 | 2.6
Nc1ncn(C2CC(O)C(CO)S2)c(=O)n1 (stereo not given) + Cc1ccccc1N=Nc1ccc(NC(=O)c2ccnn2C)c(C)c1 | 62.3

Query: For 885512-296-R-J2-PDC complex spheroid growth, % test/control, provide viability, T/C of CCc1c2c(nc3ccc(O)cc13)-c1cc3c(c(=O)n1C2)COC(=O)[C@]3(O)CC + Cc1cncc(-c2nc(NCCc3c[nH]c4ccccc34)c3ncn(C(C)C)c3n2)c1 please.
Result: 3.03

Query: For 885512-296-R-J2-PDC complex spheroid growth, % test/control, provide viability, T/C of O=C(C=Cn1cnc(-c2cc(C(F)(F)F)cc(C(F)(F)F)c2)n1)NNc1cnccn1 + Cc1ccccc1N=Nc1ccc(NC(=O)c2ccnn2C)c(C)c1 please.
Result: 23.7

Query: For 885512-296-R-J2-PDC complex spheroid growth, % test/control, provide viability, T/C of CC(C)CC(NC(=O)C(Cc1ccccc1)NC(=O)c1cnccn1)B(O)O (stereo not given) + CC(CO)NC(=O)c1cc(-c2ccc(Cl)cc2)nn(-c2cnn(C)c2)c1=O please.
Result: 0.26

Query: For 885512-296-R-J2-PDC complex spheroid growth, % test/control, provide viability, T/C of Nc1ncn(C2CC(O)C(CO)S2)c(=O)n1 (stereo not given) + Cc1cncc(-c2nc(NCCc3c[nH]c4ccccc34)c3ncn(C(C)C)c3n2)c1 please.
Result: 38.8

* * *

Quick list: viability, T/C per entry.
Test system: 885512-296-R-J2-PDC complex spheroid growth, % test/control
ASSAY_OVERVIEW: Anticancer human tumor 885512-296-R-J2-PDC cell line growth inhibition [AhR];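 also: spheroids exposed to compounds for seven days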
CONDITION_PARAMETERS: second compound 1 µM; first compound 0.0316 µM; hits give low values
Reply numerically in %, unit not repeated.

Query: Item COc1ccc([C@@H](O)c2cc(-c3ncnc4cc(N5CCOCC5)ccc34)c(F)cc2Cl)nn1 + CC(CO)NC(=O)c1cc(-c2ccc(Cl)cc2)nn(-c2cnn(C)c2)c1=O has what recorded viability, T/C?
Result: 103

Query: Item O=C(C=Cc1cccc(S(=O)(=O)Nc2ccccc2)c1)NO + Cc1ccccc1N=Nc1ccc(NC(=O)c2ccnn2C)c(C)c1 has what recorded viability, T/C?
Result: 88.2

Query: Item Nc1ccccc1NC(=O)c1ccc(CNC(=O)OCc2cccnc2)cc1 + Cc1ccccc1N=Nc1ccc(NC(=O)c2ccnn2C)c(C)c1 has what recorded viability, T/C?
Result: 97.7

Query: Item O=C(c1cc(Cc2n[nH]c(=O)c3ccccc23)ccc1F)N1CCN(C(=O)C2CC2)CC1 + Cc1ccccc1N=Nc1ccc(NC(=O)c2ccnn2C)c(C)c1 has what recorded viability, T/C?
Result: 121

Query: Item Cn1ncnc1C1c2n[nH]c(=O)c3cc(F)cc(c23)NC1c1ccc(F)cc1 (stereo unspecified) + CC(CO)NC(=O)c1cc(-c2ccc(Cl)cc2)nn(-c2cnn(C)c2)c1=O has what recorded viability, T/C?
Result: 79.1

Query: Item COc1cccc2c1C(=O)c1c(O)c3c(c(O)c1C2=O)CC(O)(C(=O)CO)CC3OC1CC(N)C(O)C(C)O1 (stereo unspecified) + Cc1ccccc1N=Nc1ccc(NC(=O)c2ccnn2C)c(C)c1 has what recorded viability, T/C?
Result: 16

The measured values listed here are drawn from PubChem BioAssay AID1919006.
